Source listed as PubChem BioAssay AID624351.

Assay: coupled detection enzyme interference, dose response, artefact control for MgcRacGAP inhibitor project, biochemical, coupled enzyme counter-screen (AID 624351);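 further: signal is the ADP detection kit reading of free GDP without any GAP enzyme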
Details: ADP Hunter coupled enzyme counter-screen, fluorescence, no MgcRacGAP; series mostly up to 80 µM
Screen size: about 2,400 compounds; about 1,400 (58%) were called active.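 How the source made its calls: active means inhibition of 30% or more at any tested dose; inconclusive means primary hits over the limit that were never retested; inactive means the rest.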 The set was probably picked from earlier hits. Some of the results follow.
# output must be one of active, inactive

For orientation, consider the following solved cases.
CCC(C)N1CCN(C(=O)c2cccs2)CC1 (stereo not drawn)    inactive
COc1ccc(N2CCN(CC(O)COC(c3ccc(F)cc3)c3ccc(F)cc3)CC2)cc1 (stereo not drawn)    inactive
CCc1ccc(OCCOCCN2CCN(C)CC2)cc1    inactive
COc1cc(OC)c(OC)cc1CN1CCN(C(=O)c2cccc3ccccc23)CC1    inactive
COc1ccc2c(c1OC)C(=O)OC2CC(=O)c1ccc(O)c(O)c1 (stereo not drawn)    active
COCCn1c(=S)[nH]c2sc3c(c2c1=O)CCCC3    active

Which outcome was entered for the molecule `CCn1c(=S)[nH]c2sc3c(c2c1=O)CCCC3` in this test?
active

Please indicate how the test categorized `CCCCN(CC)CCNC(=O)c1cc2c(-c3ccc(Cl)cc3)nn(C)c2s1` .
inactive

Per the assay record, what outcome was assigned to `O=C1C=CC(=O)c2c(O)c(N3CCN(CCOCCO)CC3)c(Br)c(O)c21` ?
inactive

Can you look up the reported call for Cc1ccc(C(C2=C(O)CC(C)(C)CC2=O)C2C(=O)CC(C)(C)CC2=O)o1 (stereo not drawn) for me?
inactive

Recorded test call requested for `C=CCc1cc(C=Nc2ccc(N3CCOCC3)cc2)cc(OCC)c1O`
active
